assay: Pharmacokinetics of 2C-B-Fly-NBOMe in blood serum and brain tissue (LC/MS); assay type: in vivo, male Wistar rats; conditions: male, Wistar, rat, sc; brain; 1 mg/kg s. c.; mean ± SEM
endpoint name: Cmax (ng/g)

In [3]: df
Out[3]:
                          smiles_notation  unit_of_measurement  observed
0  COc1ccccc1CNCCc1c2c(c(Br)c3c1OCC3)OCC2                 ng/g       159

* * *

Test: Pharmacokinetics of 2C-B-Fly-NBOMe in blood serum and brain tissue (LC/MS)
Type: in vivo, male Wistar rats
Settings: male, Wistar, rat, sc; serum; 1 mg/kg s. c.
Experimental: For the pharmacokinetic study, rats were treated with 1 mg/kg s. c. of 2C-B-Fly-NBOMe and then sacrificed by decapitation after 0.5, 1, 2, 4, 8 and 24 h (n = 8 per time point). […] The samples were analysed using ultra-high performance liquid chromatography-tandem mass spectrometry instrumentation (1,290 Infinity—6,460 Triple Quadrupole LC/MS Agilent Technologies with AJS electrospray ionization source). […] 2C-B-Fly-NBOMe was quantified using an external matrix-matched calibration. […]
endpoint name: Tmax (min)

                          smiles_notation  endpoint_name  unit_of_measurement  observed
0  COc1ccccc1CNCCc1c2c(c(Br)c3c1OCC3)OCC2           Tmax                  min        48

* * *

Assay: Pharmacokinetics of 2C-B-Fly-NBOMe in blood serum and brain tissue (LC/MS)
Assay type: in vivo, male Wistar rats
Settings: male, Wistar, rat, sc; serum; 1 mg/kg s. c.; mean ± SEM
Experimental: For the pharmacokinetic study, rats were treated with 1 mg/kg s. c. of 2C-B-Fly-NBOMe and then sacrificed by decapitation after 0.5, 1, 2, 4, 8 and 24 h (n = 8 per time point). […] The samples were analysed using ultra-high performance liquid chromatography-tandem mass spectrometry instrumentation (1,290 Infinity—6,460 Triple Quadrupole LC/MS Agilent Technologies with AJS electrospray ionization source). […] 2C-B-Fly-NBOMe was quantified using an external matrix-matched calibration. […]
endpoint name: Cmax (ng/mL)

>>> print(df.to_string())
                                   compound  endpoint_name  observed
0  COc1ccccc1CNCCc1c2c(c(Br)c3c1OCC3)OCC2 [2C-B-Fly-NBOMe]           Cmax      28.4

* * *

experiment: Pharmacokinetics of 2C-B-Fly-NBOMe in blood serum and brain tissue (LC/MS); type: in vivo, male Wistar rats; settings: male, Wistar, rat, sc; serum; 1 mg/kg s. c.; mean ± SEM; read-out: AUC0-24 h
endpoint name: AUC(0-t) (ng·h/mL)

In [3]: df
Out[3]:
                          smiles_notation  endpoint_name  unit_of_measurement  observed
0  COc1ccccc1CNCCc1c2c(c(Br)c3c1OCC3)OCC2       AUC(0-t)              ng·h/mL       115

* * *

test: Pharmacokinetics of 2C-B-Fly-NBOMe in blood serum and brain tissue (LC/MS); assay type: in vivo, male Wistar rats; conditions: male, Wistar, rat, sc; brain; 1 mg/kg s. c.; Table 1; read-out: t1/2 (converted)
endpoint name: half-life (h)

>>> print(df.to_string())
                          smiles_notation  observed
0  COc1ccccc1CNCCc1c2c(c(Br)c3c1OCC3)OCC2       3.2
